Target: fMet-Leu-Phe receptor (Homo sapiens) (UniProt P21462)
Sequence (P21462 whole entry, looked up): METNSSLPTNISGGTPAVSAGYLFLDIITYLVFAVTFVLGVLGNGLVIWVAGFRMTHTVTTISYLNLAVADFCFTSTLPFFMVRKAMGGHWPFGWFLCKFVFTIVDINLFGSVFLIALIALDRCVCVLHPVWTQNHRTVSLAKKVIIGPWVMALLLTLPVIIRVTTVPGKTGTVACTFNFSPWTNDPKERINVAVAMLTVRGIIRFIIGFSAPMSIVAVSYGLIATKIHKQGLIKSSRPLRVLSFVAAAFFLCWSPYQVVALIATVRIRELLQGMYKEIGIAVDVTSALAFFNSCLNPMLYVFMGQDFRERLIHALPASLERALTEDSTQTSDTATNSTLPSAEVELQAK
observation_type: pIC50
To interpret pIC50, take it as minus log10 of a concentration measured in moles per litre.

Record request: pIC50 value, item O=C(O)/C=C/c1nc(CSc2c(Cl)cccc2Cl)ccc1OCCc1ccccc1 [Ticolubant]
5.49
